target: Cat L (UniProt P07711); assay: Cathepsin enzyme inhibition assay (fluorogenic peptide substrate Z-Val-Val-Arg-AMC), Cathepsin L; format: biochemical, human and mouse; details: enzyme 1 nM, substrate 20 μM, pH 6.5; read-out: CatL IC50
What IC50 was measured for each of the following?
Answers are plain numbers, in µM.

As a guide, the following entries are already answered.
CC(=O)N1C[C@H](S(=O)(=O)c2ccc(-n3cccn3)cc2Cl)C[C@H]1C(=O)NC1(C#N)CC1 [Example 131] ... 33.9
N#CC1(NC(=O)[C@@H]2C[C@@H](S(=O)(=O)c3ccccc3C(F)(F)F)CN2c2cc(C3CC3)nn2C2CCC2)CC1 [Example 398] ... 18.8

Each of the following entries comes with a recorded value; kindly state IC50 for each.
1. CC(C)(C)OC(=O)N1C[C@H](S(=O)(=O)c2ccc(N3CCCCC3)cc2Cl)C[C@H]1C(=O)NC1(C#N)CC1 [Example 121]
2. N#CC1(NC(=O)[C@@H]2C[C@@H](S(=O)(=O)c3ccc(N4CCN5CCC[C@H]5C4)cc3Cl)CN2C(=O)C2(c3ccc(Cl)nc3)CC2)CC1 [Example 373, Formic Acid]
3. Cn1cc(-c2ccc(S(=O)(=O)[C@@H]3C[C@@H](C(=O)NC4(C#N)CC4)N(C(=O)C4(C)CC4)C3)c(C(F)(F)F)c2)cn1 [Example 249]
4. N#CC1(NC(=O)[C@@H]2C[C@@H](S(=O)(=O)c3ccc(N4CCCCC4)cc3Cl)CN2C=O)CC1 [Example 146]
5. CN1CCC[C@H]1C(=O)N1C[C@H](S(=O)(=O)c2ccccc2Cl)C[C@H]1C(=O)NC1(C#N)CC1 [Example 81]
6. CC(C)(C(=O)N1C[C@H](S(=O)(=O)c2ccc(OCC(F)(F)F)cc2Cl)C[C@H]1C(=O)NC1(C#N)CC1)c1ccc(Cl)cc1 [Example 279]
7. CC(=O)N1C[C@H](S(=O)(=O)c2ccc(N3CCCCC3)cc2Cl)C[C@H]1C(=O)NC1(C#N)CC1 [Example 133]
8. CN1CCN(c2ccc(S(=O)(=O)[C@@H]3C[C@@H](C(=O)NC4(C#N)CC4)N(C(=O)C4(C(F)(F)F)CC4)C3)c(Cl)c2)CC1 [Example 290]

23.7
0.0427
25.8
25.5
6.03
1.31
23.4
1.6

Name the recorded IC50 of the item Cc1cc(N2C[C@H](S(=O)(=O)c3ccccc3C(F)(F)F)C[C@H]2C(=O)NC2(C#N)CC2)n(C2CCOCC2)n1 [Example 307] in your answer.
52.1

====

molecular target: Cathepsin S (UniProt P25774); experiment: Cathepsin enzyme inhibition assay (fluorogenic peptide substrate Z-Val-Val-Arg-AMC), Cathepsin S; type: biochemical, human and mouse; conditions: enzyme 1 nM, substrate 20 μM, pH 6.5; read-out: CatS IC50
Please go through the items and note down their pIC50.
Answers are plain numbers, as −log10 of the molar value.

Would you mind listing pIC50 for each of the following compounds?
1. CC(C)C(=O)N1C[C@H](S(=O)(=O)c2ccccc2Cl)C[C@H]1C(=O)NC1(C#N)CC1 [Example 218]
2. N#CC1(NC(=O)[C@@H]2C[C@@H](S(=O)(=O)c3ccc(N4CCOCC4)cc3Cl)CN2C(=O)C2(C(F)(F)F)CC2)CC1 [Example 161]

1: 9.40; 2: 9.40

I would be grateful if you could provide pIC50 for each of the following entries.
1. N#CC1(NC(=O)C2C[C@@H](S(=O)(=O)c3ccc(OCC(F)(F)F)cc3Cl)CN2C=O)CC1 (stereo partly drawn) [Example 182]
2. CC(C)(C)OC(=O)N1C[C@H](S(=O)(=O)c2ccc(OCC(F)(F)F)cc2Cl)C[C@H]1C(=O)NC1(C#N)CC1 [Example 171]

8.01
8.15

Dear colleague, could you please provide pIC50 for the compounds listed below?
1. N#CCNC(=O)[C@@H]1C[C@@H](S(=O)(=O)c2ccccc2C(F)(F)F)CN1C(=O)C1CCCCC1 [Example 67]
2. CN1C[C@H](S(=O)(=O)c2ccccc2Cl)C[C@H]1C(=O)N(C)C1(C#N)CC1 [Example 94]
3. N#CC1(NC(=O)[C@@H]2C[C@@H](S(=O)(=O)c3ccccc3C(F)(F)F)CN2c2nnc(C(F)(F)F)s2)CC1 [Example 335]
4. CC(C)(C(=O)N1C[C@H](S(=O)(=O)c2ccc(OCC(F)(F)F)cc2Cl)C[C@H]1C(=O)NC1(C#N)CC1)c1ccc(Cl)cc1 [Example 279]

9.70
6.02
9.32
10.70

====

Assignment: determine reported pIC50 for the given compounds.
target: Cat L (UniProt P07711); test: Cathepsin enzyme inhibition assay (fluorogenic peptide substrate Z-Val-Val-Arg-AMC), Cathepsin L; type: biochemical, human and mouse; conditions: enzyme 1 nM, substrate 20 μM, pH 6.5; read-out: CatL IC50
pIC50: −log10 of the molar value. Where a name gives a salt, the structure may show the parent alone.

CC(C)CS(=O)(=O)[C@H]1CN[C@H](C(=O)NC2(C#N)CC2)C1 [Example 114, Hydrochloride] ... ≤ 4.60
N#CC1(NC(=O)[C@@H]2C[C@@H](S(=O)(=O)c3ccccc3C(F)(F)F)CN2c2cc(C3CC3)n[nH]2)CC1 ... ≤ 4.60

# input for lookup
Identify measured pIC50 corresponding to CC(C)CS(=O)(=O)[C@@H]1C[C@@H](C(=O)NC2(C#N)CC2)N(C(=O)C2(c3ccc(Cl)cc3)CC2)C1
≤ 4.60

====

molecular target: Cat L (UniProt P07711); assay: Cathepsin enzyme inhibition assay (fluorogenic peptide substrate Z-Val-Val-Arg-AMC), Cathepsin L; assay type: biochemical, human and mouse; settings: enzyme 1 nM, substrate 20 μM, pH 6.5; read-out: CatL IC50
Structures can show the parent of a compound that is named as a salt.
Would you kindly list pIC50 for each of these molecules?
Give bare numbers, as −log10 of the molar value.

COCCN1CCN(c2ccc(S(=O)(=O)[C@@H]3C[C@@H](C(=O)NC4(C#N)CC4)N(C(=O)C4(C(F)(F)F)CC4)C3)c(Cl)c2)CC1 [Example 297] ... 5.87
COc1ccc(S(=O)(=O)[C@@H]2C[C@@H](C(=O)NC3(C#N)CC3)N(c3cc(C)nn3Cc3ccccc3)C2)c(Cl)c1 [Example 376] ... 5.76
N#CC1(NC(=O)[C@@H]2C[C@@H](S(=O)(=O)c3ccccc3C(F)(F)F)CN2C(=O)C2(c3ccc(Cl)cc3)CC2)CC1 [Example 202] ... 6.22
N#CC1(NC(=O)[C@@H]2C[C@@H](S(=O)(=O)c3ccc(Cl)cc3Cl)CN2C(=O)C2CC2(F)F)CC1 (some centres unmarked) [Example 170] ... 4.74
Cc1cc(N2C[C@H](S(=O)(=O)c3ccc(N4CCN(C(C)(C)C)CC4)cc3Cl)C[C@H]2C(=O)NC2(C#N)CC2)n(CCc2ccccc2)n1 [Example 485] ... 6.56

Lab note: each molecule below needs its pIC50 filled in.
1. N#CC1(NC(=O)[C@@H]2C[C@@H](S(=O)(=O)c3ccccc3Cl)CN2Cc2ccncc2)CC1 [Example 86]
2. CC(C)(C)OC(=O)N[C@@H](C(=O)N1C[C@H](S(=O)(=O)c2ccccc2Cl)C[C@H]1C(=O)NC1(C#N)CC1)c1ccc(Cl)cc1 [Example 412]

1: 4.84; 2: 6.11

Would you be so kind as to report pIC50 for each listed record?
1. Cc1cc(N2C[C@H](S(=O)(=O)c3ccc(-c4ccnn4C)cc3C(F)(F)F)C[C@H]2C(=O)NC2(C#N)CC2)n(C2CCC2)n1 [Example 420]
2. C[C@H](Oc1ccc(S(=O)(=O)[C@@H]2C[C@@H](C(=O)NC3(C#N)CC3)N(C(=O)C3(C(F)(F)F)CC3)C2)c(Cl)c1)C(F)(F)F [Example 183]
3. N#CC1(NC(=O)[C@@H]2C[C@@H](S(=O)(=O)c3ccccc3Cl)CN2S(=O)(=O)c2ccc(Cl)cc2)CC1 [Example 315]
4. Cc1cc(N2C[C@H](S(=O)(=O)c3ccccc3C(F)(F)F)C[C@H]2C(=O)NC2(C#N)CC2)n(CC(C)C)n1 [Example 340]
5. Cc1cc(N2C[C@H](S(=O)(=O)c3ccc(N4CC(F)(F)C4)cc3C(F)(F)F)C[C@H]2C(=O)NC2(C#N)CC2)n(C2CCC2)n1 [Example 415]
6. N#CC1(NC(=O)[C@@H]2C[C@@H](S(=O)(=O)c3ccccc3Cl)CN2C(=O)C2(c3ccc(Br)cc3)CC2)CC1 [Example 426]
7. N#CC1(NC(=O)[C@@H]2C[C@@H](S(=O)(=O)c3ccccc3Cl)CN2C(=O)C2(c3ccc(Cl)cc3F)CC2)CC1 [Example 439]

1. 4.85
2. 5.01
3. 5.60
4. 4.58
5. 4.93
6. 7.35
7. 7.53

// input: 2 molecules below; output: pIC50 for each
1. CN1CCN(c2ccc(S(=O)(=O)[C@H]3CN[C@H](C(=O)NC4(C#N)CC4)C3)c(C(F)(F)F)c2)CC1 [Example 21, hydrochloride]
2. Cn1cc(-c2ccc(S(=O)(=O)[C@@H]3C[C@@H](C(=O)NC4(C#N)CC4)N(C(=O)C4(C(F)(F)F)CC4)C3)c(C(F)(F)F)c2)cn1 [Example 238]

1. 4.39
2. 4.68
